Target: T1, HLA-A2 / homologous peptide PRKD2 complex on T2 cells (human)
T1 construct: whole, on cells; also called T2 cells supplemented with homologous peptide PRKD2
Assay: flow cytometry on peptide-pulsed T2 cells, scFv 100 nM;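 note: scFv binding read as gMFI and normalized to the level of HLA/peptide complex displayed on T2 cells, with homologous 9-mer peptides used to probe specificity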
Property: standardized gMFI

# count of solved cases: 5
1. NYA-2061 (scFv, also called NYA-2061 tag adduct) scFv: GEVQLVESGGGLVQPGGSLRLSCAASGFSIRSYDIHWVRQAPGKGLEWVATISYDGSQKYYADSVKGRFTISRDESKNTLYLQMNSLRAEDTAVYHCARGSSGHYEAFDIWGQGTLVTVSSGGGGSGGGGSGGGGSQSVLTQPPSASGTPGQRVTISCSGSSSNIGNWYVSWYQQLPGTAPKLLIYDNNKRPSGVPDRFSGSKSGTSASLAISGLQSEDEADYYCGTWDSSLSAPWVFGGGTKLTVLGAAAGAGGDYKDDDDKGAAAHHHHHH : 0.33
2. NYA-2045 (scFv, also called NYA-2045 tag adduct) scFv: GEVQLVESGGGLVQPGGSLRLSCAASGFSIRSYDIHWVRLAPGKGLEWVATISYDGSQKYYADSVKGRFTISRDESKNTLYLQMNSLRAEDTAVYHCARGSSGHYEAFDIWGQGTLVTVSSGGGGSGGGGSGGGGSQSVLTQPPSASGTPGQRVTISCSGSSSNIGNWYVSWYQQLPGTAPKLLIYDNNKRPSGVPDRFSGSKSGTSASLAISGLQSEDEADYYCGTWDSSLSAPWVFGGGTKLTVLGAAAGAGGDYKDDDDKGAAAHHHHHH : 0.34
3. NYC-0003 (scFv, not shown: small tags and cut ends, also called 3M4E5 scFv; NYC-0003 tag adduct) scFv: EVQLLESGGGLVQPGGSLRLSCAASGFTFSTYQMSWVRQAPGKGLEWVSGIVSSGGSTAYADSVKGRFTISRDNSKNTLYLQMNSLRAEDTAVYYCAGELLPYYGMDVWGQGTTVTVSSGGGGSGGGGSGGGGSQSELTQPRSVSGSPGQSVTISCTGTSRDVGGYNYVSWYQQHPGKAPKLIIHDVIERSSGVPDRFSGSKSGNTASLTISGLQAEDEADYYCWSFAGSYYVFGTGTDVTVL : 1.53
4. NYA-2048 (scFv, also called NYA-2048 tag adduct) scFv: GQVQLVESGGGVVQPGRSLRLSCAASGFSIRSYDMHWVRQAPGKGLEWVATISYDGSQKYYADSVKGRFTISRDNSKNTLYLQMSSLRAEDTAVYHCARGSSGHYEAFDIWGQGTLVTVSSGGGGSGGGGSGGGGSQSVLTQPPSASGTPGQRVTISCSGSSSNIGNWYVSWYQQLPGTAPKLLIYDNNKRPSGVPDRFSGSKSGTSASLAISGLQSEDEADYYCGTWDSSLSAPWVFGGGTKLTVLGAAAGAGGDYKDDDDKGAAAHHHHHH : 0.35
5. NYC-0004 (scFv, not shown: small tags and cut ends, also called T1 scFv; NYC-0004 tag adduct) scFv: EVQLLESGGGLVQPGGSLRLSCAASGFTFSTYQMSWVRQAPGKGLEWVSGIVSSGGSTAYADSVKGRFTISRDNSKNTLYLQMNSLRAEDTAVYYCAGELLPYYGMDVWGQGTTVTVSSGGGGSGGGGSGGGGSQSELTQPRSVSGSPGQSVTISCTGTERDVGGYNYVSWYQQHPGKAPKLIIHDVIERSSGVPDRFSGSKSGNTASLTISGLQAEDEADYYCWSFAGGYYVFGTGTDVTVL : 3.41

Lab note: each binder below needs its standardized gMFI filled in.
1. NYA-1163 (scFv) scFv: GEVQLVESGGGVVQPGRSLTPSCSASGFSIRSYDIHWVRLAPGKGLEWVATISYDGSQKYFADSVKGRFTIFRDESENMVYLQMSGLRVEDTAVYHCARGSSGHYEAFDIWGQGTMVTVSSGGGGSGGGGSGGGGSQSVLTQPPSVSAAPGQKVTISCSGSSSNIGNNYVSWYQQLPGTAPKLLIYDNNKRPSGIPDRFSGSKSGTSATLGITGLQTGDEADYYCGTWDSSLSAPWVFGGGTKVTVLGAAAGAGGDYKDDDDKGAAAHHHHHH
2. NYA-1154 (scFv) scFv: GEVQLVESGGGVVQPGRSLTPSCSASGFSIRSYDMHWVRQAPGKGLEWVATISYDGSQKYFADSVKGRFTIFRDESENMVYLQMSGLRVEDTAVYHCARGSSNHYEAFDIWGQGTMVTVSSGGGGSGGGGSGGGGSQSVLTQPPSVSAAPGQKVTISCSGSSSNIGNNYVSWYQRLPGTAPKLLIYDNNKRPSGIPDRFSGSKSGTSATLGITGLQTGDEADYYCGAWDSSLSAPWVFGGGTKVTVLGAAAGAGGDYKDDDDKGAAAHHHHHH
3. NYA-0001 (scFv, also called NYA-0001 tag adduct; NY-R119 expressed in a cultured mammalian cell) scFv: GEVQLVESGGGVVQPGRSLTPSCSASGFSIRSYDIHWVRQAPGKGLEWVATISYDGSQKYFADSVKGRFTIFRDESENMVYLQMSGLRVEDTAVYHCARGSSGHYEAFDIWGQGTMVTVSSGGGGSGGGGSGGGGSQSVLTQPPSVSAAPGQKVTISCSGSSSNIGNNYVSWYQQLPGTAPKLLIYDNNKRPSGIPDRFSGSKSGTSATLGITGLQTGDEADYYCGTWDSSLSAPWVFGGGTKVTVLGAAAGAGGDYKDDDDKGAAAHHHHHH
4. NYA-2023 (scFv) scFv: GEVQLVESGGGVVQPGRSLTPSCSASGFSIRSYDIHWVRQAPGKGLEWVATISYDGSQKYFADSVKGRFTIFRDESENMVYLQMSGLRVEDTAVYHCARGSSGHYEAFDIWGQGTMVTVSSGGGGSGGGGSGGGGSQSVLTQPPSVSAAPGQKVTISCSGSSSNIGNWYVSWYQQLPGTAPKLLIYDNNKRPSGIPDRFSGSKSGTSATLGITGLQTGDEADYYCGTWDSSLSAPWVFGGGTKVTVLGAAAGAGGDYKDDDDKGAAAHHHHHH
5. NYA-2060 (scFv, also called NYA-2060 tag adduct) scFv: GEVQLVESGGGLVQPGGSLRLSCAASGFSIRSYDIHWVRQAPGKGLEWVATISYDGSQKYYADSVKGRFTISRDESKNTLYLQMNSLRAEDTAVYHCARGSSGHYEAFDIWGQGTLVTVSSGGGGSGGGGSGGGGSQSVLTQPPSVSAAPGQKVTISCSGSSSNIGNWYVSWYQQLPGTAPKLLIYDNNKRPSGIPDRFSGSKSGTSATLGITGLQTGDEADYYCGTWDSSLSAPWVFGGGTKVTVLGAAAGAGGDYKDDDDKGAAAHHHHHH

1: 0.31; 2: 2.72; 3: 0.33; 4: 0.42; 5: 0.33
